Origin of the recorded values: patent US20240294551A1

- Test system: MIA PaCa-2 cells
- assay_remarks: MIA PaCa-2 CTG Assay (CellTiter-Glo cell viability)
- Format: cell-based, human
- experimental_context: Homo sapiens; Mia PaCa-2, 72 h; second value of the cell; read-out: G12D/C/V Cell Proliferation CTG (72 h) Mia PaCa-2
property: IC50

>  <compound>
CN1C[C@H](F)C[C@H]1COc1nc2c3cnc(c(F)c3n1)-c1c(c(Cl)cc3[nH]ncc13)CCOC(=O)O[C@H]1C[C@@]3(CCCN2C3)C1 [Example 320]

>  <obs_value>
0.08 µM

$$$$
>  <compound>
O=C1OCC[C@@H]2CCc3cc4[nH]ncc4c(c32)-c2ncc3c(nc(OC[C@@]45CCCN4C[C@H](F)C5)nc3c2F)N2CCOC[C@H](C2)O1 [Example 367]

>  <obs_value>
0.026 µM

$$$$
>  <compound>
O=C1OCCCc2c(F)cc3[nH]ncc3c2-c2ncc3c(nc(OC[C@@]45CCCN4C[C@H](F)C5)nc3c2F)N2CCOC[C@H](C2)O1 [Example 208]

>  <obs_value>
0.038 µM

$$$$

---

- target_system: GDP-bound KRAS protein (aa 1-169), containing both G12D and C118A amino acid substitutions (Homo sapiens (Human), UniProt P01116, C118A/G12D)
- Sequence (P01116 other isoform, or with tags, fused parts or gaps G12D/C118A): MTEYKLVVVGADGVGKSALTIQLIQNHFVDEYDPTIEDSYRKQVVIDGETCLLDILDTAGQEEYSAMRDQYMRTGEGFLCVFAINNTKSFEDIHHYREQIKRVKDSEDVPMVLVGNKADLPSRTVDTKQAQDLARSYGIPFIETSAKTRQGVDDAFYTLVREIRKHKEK
- assay_remarks: KRAS G12D Coupled Nucleotide Exchange Assay
- Type: biochemical
- experimental_context: read-out: KRAS G12D Coupled Exchange IC50
pIC50: −log10 of the molar value.
We begin with a simple list: items and their reported pIC50.

>  <compound>
Fc1c2ncc3c(nc(OC[C@@]45CCCN4C[C@H](F)C5)nc13)N1CCO[C@@H](COCCCCc3c(Cl)cc4[nH]ncc4c3-2)C1

>  <pIC50>
8.70

$$$$
>  <compound>
O=C1CCCCc2cccc3cc(O)cc(c23)-c2ncc3c(nc(OC[C@@]45CCCN4C[C@H](F)C5)nc3c2F)N2CCCN1CC2 [Example 9, bis(2,2,2-trifluoroacetate)]

>  <pIC50>
6.53

$$$$
>  <compound>
O=C1OCCCc2c(Cl)cc3[nH]ncc3c2-c2ncc3c(nc(OC[C@@]45CCCN4C[C@H](F)C5)nc3c2F)N2CC[C@H]3CCN1[C@H]3C2

>  <pIC50>
8.52

$$$$

---

We begin with a simple list: items and their reported pIC50.
- target_system: His-tagged KRAS G12D protein (Homo sapiens (Human), UniProt P01116, G12D)
- Sequence (P01116 other isoform, or with tags, fused parts or gaps G12D): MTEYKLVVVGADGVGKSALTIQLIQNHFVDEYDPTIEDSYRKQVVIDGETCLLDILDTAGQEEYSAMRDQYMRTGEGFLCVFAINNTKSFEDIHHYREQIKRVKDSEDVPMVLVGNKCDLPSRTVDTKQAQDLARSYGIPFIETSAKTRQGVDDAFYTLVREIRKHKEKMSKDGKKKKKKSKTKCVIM
- assay_remarks: KRAS G12D TR-FRET Assay
- Type: binding
- experimental_context: read-out: KRAS G12D Binding IC50
pIC50: −log10 of the molar value.

>  <compound>
O=C1OCCc2c(Cl)cc3[nH]ncc3c2-c2ncc3c(nc(OC[C@@]45CCCN4C[C@H](F)C5)nc3c2F)N2CCCCC(CO1)C2 (stereo partly shown)

>  <pIC50>
8.52

$$$$
>  <compound>
O=C1NCCCc2c(Cl)cc3[nH]ncc3c2-c2ncc3c(nc(OC[C@@]45CCCN4C[C@H](F)C5)nc3c2F)N2CCCC[C@H](C2)O1

>  <pIC50>
8.15

$$$$
>  <compound>
Cc1cc2[nH]ncc2c2c1[C@H]1C[C@H]1CCOC[C@H]1CN(CCO1)c1nc(OC[C@@]34CCCN3C[C@H](F)C4)nc3c(F)c-2ncc13 (single isomer, unassigned)

>  <pIC50>
8.15

$$$$
>  <compound>
Fc1ccc2cccc3c2c1CCOCC[C@@H]1CCCN(C1)c1nc(OC[C@@]24CCCN2C[C@H](F)C4)nc2c(F)c-3ncc12

>  <pIC50>
6.19

$$$$
>  <compound>
[2H]C([2H])([2H])[C@@]12COCCN(C1)c1nc(OC[C@@]34CCCN3C[C@H](F)C4)nc3c(F)c(ncc13)-c1c(c(Cl)cc3[nH]ncc13)CCCOC(=O)O2

>  <pIC50>
8.52

$$$$
>  <compound>
Cc1cc2[nH]ncc2c2c1CCCCC(=O)N[C@@H]1CN(C[C@@H]3C[C@@H]31)c1nc(OC[C@@]34CCCN3C[C@H](F)C4)nc3c(F)c-2ncc13

>  <pIC50>
5.60

$$$$
>  <compound>
COc1c2ncc3c(nc(OC[C@@]45CCCN4C[C@H](F)C5)nc13)N1CCC[C@](C)(C1)NC(=O)CCCc1c(F)ccc3cc(O)cc-2c13

>  <pIC50>
8.15

$$$$

---

- target_system: GDP-bound KRAS protein (aa 1-169), containing both G12D and C118A amino acid substitutions (Homo sapiens (Human), UniProt P01116, C118A/G12D)
- assay_remarks: KRAS G12D Coupled Nucleotide Exchange Assay
- Format: biochemical
- experimental_context: read-out: KRAS G12D Coupled Exchange IC50
pIC50: −log10 of the molar value.

>  <compound>
Fc1c2ncc3c(nc(OC[C@@]45CCCN4C[C@H](F)C5)nc13)N1CCOC[C@H](C1)OC(=S)OCCCc1c(Cl)cc3[nH]ncc3c1-2 [Example 199]

>  <pIC50>
8.52

$$$$
>  <compound>
Cc1cc2[nH]ncc2c2c1CCCOC(=O)O[C@@H]1CCCCN(C1)c1nc(OC[C@@H]3C[C@@H](F)CN3C)nc3c(F)c-2ncc13 [Example 92]

>  <pIC50>
7.96

$$$$
>  <compound>
Fc1c2ncc3c(nc(OC[C@@]45CCCN4C[C@H](F)C5)nc13)N1CCCC(C1)c1cnn(n1)CCCc1c(Cl)cc3[nH]ncc3c1-2 (stereo partly drawn) [Example 148]

>  <pIC50>
8.30

$$$$

---

We begin with a simple list: items and their reported pIC50.
- target_system: His-tagged KRAS G12D protein (Homo sapiens (Human), UniProt P01116, G12D)
- assay_remarks: KRAS G12D TR-FRET Assay
- Type: binding
- experimental_context: read-out: KRAS G12D Binding IC50
- Experimental: Compounds of interest were prepared in a dose-response titration in DMSO, and 80 nL were added via Labcyte Echo to each well of a 384-well plate (Perkin Elmer 6008280). […] Plates were read using PerkinElmer EnVision (ex: 320 nm, em1: 665 nm, em2: 615 nm) and em1/em2 data was used to generate curve fits using a 4-parameter logistic model to calculate IC50 values.
pIC50: −log10 of the molar value.

>  <structure_string>
CN1C[C@H](F)C[C@H]1COc1nc2c3cnc(c(F)c3n1)-c1c(c(Cl)cc3[nH]ncc13)CCCOC(=O)O[C@]1(C)COCCN2C1

>  <pIC50>
8.30

$$$$
>  <structure_string>
Cc1cc2[nH]ncc2c2c1CCCOC(=O)N[C@]1(C)CCCCN(C1)c1nc(OC[C@@]34CCCN3C[C@H](F)C4)nc3c(F)c-2ncc13

>  <pIC50>
8.40

$$$$
>  <structure_string>
C[C@@]12CCCN(C1)c1nc(OC[C@@]34CCCN3C[C@H](F)C4)nc3c(F)c(ncc13)-c1cc(O)cc3ccc(F)c(c13)CCCCC(=O)N2

>  <pIC50>
8.40

$$$$

---

- target_system: His-tagged KRAS G12D protein (Homo sapiens (Human), UniProt P01116, G12D)
- assay_remarks: KRAS G12D TR-FRET Assay
- Format: binding
- experimental_context: read-out: KRAS G12D Binding IC50
pIC50: −log10 of the molar value.
property: pIC50

>  <compound>
Cc1cc2[nH]ncc2c2c1CC/C=C\CO[C@@H]1CCCN(C1)c1nc(OC[C@@]34CCCN3C[C@H](F)C4)nc3c(F)c-2ncc13

>  <obs_value>
6.62

$$$$
>  <compound>
O=C1CCCCc2c(Cl)cc3[nH]ncc3c2-c2ncc3c(nc(OC[C@@]45CCCN4C[C@H](F)C5)nc3c2F)N2C[C@H]3CN1[C@H]3C2

>  <obs_value>
6.21

$$$$
>  <compound>
O=C1OCC[C@@H]2CCc3cc4[nH]ncc4c(c32)-c2ncc3c(nc(OC[C@@]45CCCN4C[C@H](F)C5)nc3c2F)N2CCOC[C@H](C2)O1

>  <obs_value>
8.40

$$$$
>  <compound>
Cc1nc2c3cnc(c(F)c3n1)-c1cc(O)cc3ccc(F)c(c13)CCCC(=O)N[C@]1(C)CCCN2C1.O=C(O)C(F)(F)F [Example 14, 2,2,2-trifluoroacetate]

>  <obs_value>
6.46

$$$$
>  <compound>
C[C@@]12COCCN(C1)c1nc(OC[C@@]34CCCN3C[C@H](F)C4)nc3c(F)c(ncc13)-c1cccc3ccc(F)c(c13)CCOC(=O)O2

>  <obs_value>
7.82

$$$$
>  <compound>
Cc1cc2[nH]ncc2c2c1CCOC(=O)O[C@H]1C[C@]3(CCCN(C3)c3nc(OC[C@@H]4CCCN4C)nc4c(F)c-2ncc34)C1 (single isomer, unassigned)

>  <obs_value>
8.40

$$$$
>  <compound>
CN1[C@H](COc2nc3c4cnc(c(F)c4n2)-c2c(c(Cl)cc4[nH]ncc24)CCCOC(=O)O[C@@H]2COCCN3C2)C[C@H]2C[C@H]21

>  <obs_value>
7.85

$$$$
>  <compound>
Fc1c2ncc3c(nc(OC[C@@]45CCCN4C[C@H](F)C5)nc13)N1CCC[C@H](C1)c1noc(n1)CCCc1c(Cl)cc3[nH]ncc3c1-2

>  <obs_value>
8.05

$$$$
>  <compound>
CN1CCN(c2nc3c4cnc(c(F)c4n2)-c2c(c(Cl)cc4[nH]ncc24)CCCOC(=O)O[C@@H]2COCCN3C2)CC1

>  <obs_value>
7.57

$$$$
>  <compound>
C[C@H]1CCOC[C@H]2CN(CCO2)c2nc(OC[C@@]34CCCN3C[C@H](F)C4)nc3c(F)c(ncc23)-c2c(c(Cl)cc3[nH]ncc23)C1

>  <obs_value>
7.55

$$$$
>  <compound>
Cc1cc2[nH]ncc2c2c1CCCCC(=O)OC1CN(CC(F)(F)C1)c1nc(OC[C@@]34CCCN3C[C@H](F)C4)nc3c(F)c-2ncc13 (mixture of isomers)

>  <obs_value>
6.55

$$$$
>  <compound>
CN(C)CC1(COc2nc3c4cnc(c(F)c4n2)-c2cc(O)cc4ccc(F)c(c24)CCCC(=O)N[C@]2(C)CCCN3C2)CC1 [Example 22, bis(2,2,2-trifluoroacetate)]

>  <obs_value>
8.52

$$$$
